# TESTED_TARGET: Human DAAO (Homo sapiens)
# Sequence (P14920 whole entry): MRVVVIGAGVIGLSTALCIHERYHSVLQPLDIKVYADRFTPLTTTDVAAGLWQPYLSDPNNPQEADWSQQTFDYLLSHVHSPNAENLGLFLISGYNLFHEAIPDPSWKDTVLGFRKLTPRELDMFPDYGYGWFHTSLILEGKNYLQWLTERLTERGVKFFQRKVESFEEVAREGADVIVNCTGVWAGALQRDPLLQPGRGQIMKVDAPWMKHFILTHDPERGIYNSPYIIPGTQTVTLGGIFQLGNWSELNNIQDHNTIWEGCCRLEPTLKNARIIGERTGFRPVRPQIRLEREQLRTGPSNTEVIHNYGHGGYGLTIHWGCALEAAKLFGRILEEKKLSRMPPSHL
# PROCEDURE_SUMMARY: D-Amino Acid Oxidase Enzyme Assay (D-serine substrate, horseradish peroxidase/Amplex Red coupled fluorescence)
# Type: biochemical
# TEST_CONDITIONS: D-serine 5 mM, pH 7.4; read-out: Human DAAO Inhibition (IC50)
Reported IC50 values are given for each entry in this list.
ASSAY_ENDPOINT: IC50

compound="O=C(O)c1cc2oc(Cl)cc2[nH]1 [Compound 23]" assay_endpoint=IC50 reported="< 100000 nM"
compound="O=C(O)c1cc2sc(F)cc2[nH]1 [Compound 55]" assay_endpoint=IC50 reported="< 25 nM"
compound="O=C(O)c1cc2cc(F)sc2[nH]1 [Compound 66]" assay_endpoint=IC50 reported="< 25 nM"
compound="O=C(O)c1[nH]c2ccoc2c1Cl [Compound 79]" assay_endpoint=IC50 reported="< 100 nM"
compound="O=C(O)c1cc2occ(F)c2[nH]1 [Compound 74]" assay_endpoint=IC50 reported="< 25 nM"
compound="O=C(O)c1cc2sc(Br)c(Br)c2[nH]1 [Compound 6]" assay_endpoint=IC50 reported="< 100000 nM"
compound="O=C(O)c1cc2sc(Br)cc2[nH]1 [Compound 5]" assay_endpoint=IC50 reported="< 1000 nM"
compound="O=C(O)c1[nH]c2ccoc2c1Br [Compound 72]" assay_endpoint=IC50 reported="< 1000 nM"
compound="O=C(O)c1[nH]c2ccsc2c1Br [Compound 71]" assay_endpoint=IC50 reported="< 1000 nM"
compound="O=C(O)c1cc2oc(F)cc2[nH]1 [Compound 78]" assay_endpoint=IC50 reported="< 25 nM"
compound="O=C(O)c1[nH]c2ccsc2c1Cl [Compound 70]" assay_endpoint=IC50 reported="< 100 nM"
compound="O=C(O)c1cc2sc(Cl)cc2[nH]1 [Compound 4]" assay_endpoint=IC50 reported="< 100000 nM"
compound="O=C(O)c1[nH]c2sccc2c1F [Compound 82]" assay_endpoint=IC50 reported="< 100 nM"
compound="O=C(O)c1[nH]c2ccoc2c1F [Compound 75]" assay_endpoint=IC50 reported="< 25 nM"
compound="O=C(O)c1cc2c(Br)csc2[nH]1 [Compound 8]" assay_endpoint=IC50 reported="< 1000 nM"
